# pIC50 annotations
Experimental system: recombinant Plk1 protein (Homo sapiens, UniProt P53350)
Construct: histidine tag (N)
Sequence (P53350 whole entry): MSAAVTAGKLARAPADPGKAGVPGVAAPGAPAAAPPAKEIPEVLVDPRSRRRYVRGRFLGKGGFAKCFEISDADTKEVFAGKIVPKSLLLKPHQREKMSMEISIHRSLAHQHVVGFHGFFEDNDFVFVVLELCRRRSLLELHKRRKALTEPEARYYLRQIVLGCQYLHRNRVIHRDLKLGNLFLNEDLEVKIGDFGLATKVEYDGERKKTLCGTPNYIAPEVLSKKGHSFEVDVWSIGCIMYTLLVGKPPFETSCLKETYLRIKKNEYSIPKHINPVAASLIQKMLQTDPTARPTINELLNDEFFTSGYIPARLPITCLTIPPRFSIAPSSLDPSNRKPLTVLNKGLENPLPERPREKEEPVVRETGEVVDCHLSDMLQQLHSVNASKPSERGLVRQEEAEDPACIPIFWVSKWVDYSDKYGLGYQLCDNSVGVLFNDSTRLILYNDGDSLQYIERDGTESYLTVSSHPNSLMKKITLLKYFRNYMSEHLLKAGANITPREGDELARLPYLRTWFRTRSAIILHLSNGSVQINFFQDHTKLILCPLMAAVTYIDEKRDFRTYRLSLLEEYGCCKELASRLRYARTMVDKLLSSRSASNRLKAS
Measurement notes: Plk1 kinase activity inhibition assay (33P-ATP, alpha casein substrate, flash plates)
Condition set: enzymatic assay, 100 nM Li-ATP, 80 minutes at 30° C.
pIC50: −log10 of the molar value.

Observe how each entry below is paired with its result.
COCCN1CCN(Cc2cc3ncn(-c4cc(OC(C)c5ccccc5F)c(C(N)=O)s4)c3cn2)CC1 (centres unmarked) [Example 157]    6.00 to 7.00
COc1cc2c(cn1)ncn2-c1cc(OCc2ccccc2C(F)(F)F)c(C(N)=O)s1 [Example 16]    7.00 to 8.00
CN1CCN(Cc2cc3ncn(-c4cc(OCc5ccccc5C(F)(F)F)c(C(N)=O)s4)c3cn2)CC1 [Example 37]    5.00 to 6.00
CC(Oc1cc(-n2cnc3cnc(CN4CCN(C)CC4)cc32)sc1C(N)=O)c1ccccc1F (centres unmarked) [Example 103]    7.00 to 8.00

Ask | Any idea what pIC50 was measured for C[C@@H](Oc1cc(-n2cnc3cnc(CN4CCN(CC(=O)N(C)C)CC4)cc32)sc1C(N)=O)c1ccccc1C(F)(F)F [Example 87] ?
Reply | 7.00 to 8.00

Ask | Query (molecule): CC(Oc1cc(-n2cnc3cnc(CO)cc32)sc1C(N)=O)c1ccccc1C(F)(F)F (centres unmarked) [Example 44] ; field requested: pIC50
Reply | > 8.00

Ask | Find the recorded pIC50 belonging to NC(=O)c1sc(-n2cnc3ccncc32)cc1OCc1ccccc1F [Example 31] and report it.
Reply | 7.00 to 8.00

Ask | What value of pIC50 has been reported for the following molecule? Cc1ccccc1C(C)Oc1cc(-n2cnc3cnc(CO)cc32)sc1C(N)=O (centres unmarked) [Example 110]
Reply | > 8.00

====

Experimental system: recombinant Plk1 protein (Homo sapiens)
Construct: histidine tag (N)
Measurement notes: Plk1 kinase activity inhibition assay (33P-ATP, alpha casein substrate, flash plates)
Condition set: enzymatic assay, 100 nM Li-ATP, 80 minutes at 30° C.
pIC50: −log10 of the molar value.
Observation type: pIC50

Cc1ccccc1C(C)Oc1cc(-n2cnc3cnc(CN4CCN(C(C)C)CC4)cc32)sc1C(N)=O (stereo not drawn)    7.00 to 8.00
COc1cc2c(ncn2-c2cc(OCc3ccccc3C(F)(F)F)c(C(N)=O)s2)nc1OC [Example 21A]    6.00 to 7.00
C[C@H](Oc1cc(-n2cnc3cnc(CN4CCN(C)CC4)cc32)sc1C(N)=O)c1ccccc1C(F)(F)F    7.00 to 8.00
CC(Oc1cc(-n2cnc3cc(CO)ncc32)sc1C(N)=O)c1ccccc1F (stereo not drawn)    7.00 to 8.00

Ask | Which measured pIC50 value corresponds to N#Cc1ccccc1COc1cc(-n2cnc3cnccc32)sc1C(N)=O ?
Reply | 7.00 to 8.00

Ask | // pIC50 lookup, key: C[C@@H](Oc1cc(-n2cnc3cnc(CN4CCN(CC(=O)N(C)c5ccccc5)CC4)cc32)sc1C(N)=O)c1ccccc1C(F)(F)F
Reply | 7.00 to 8.00

Ask | Param item = COCCNC(=O)c1cc2c(cn1)ncn2-c1cc(OCc2ccccc2C(F)(F)F)c(C(N)=O)s1 ; retrieve measured pIC50.
Reply | 6.00 to 7.00

Ask | Requested field: pIC50. Item: C[C@@H](Oc1cc(-n2cnc3cnc(CN4CCN(CCN(C)C)CC4)cc32)sc1C(N)=O)c1ccccc1C(F)(F)F
Reply | 7.00 to 8.00

Ask | Can you share its pIC50? I mean this molecule: CCN(CC)Cc1cc2c(cn1)ncn2-c1cc(OCc2ccccc2C(F)(F)F)c(C(N)=O)s1
Reply | 6.00 to 7.00

Ask | // returns reported pIC50 for input CC(Oc1cc(-n2cnc3cnc(CN4CCN(C)CC4)cc32)sc1C(N)=O)c1ccccc1C(F)(F)F (stereo not drawn)
Reply | > 8.00

Ask | Consider the molecule shown here: C[C@@H](Oc1cc(-n2cnc3cnc(CN4CCN(C)C(=O)C4)cc32)sc1C(N)=O)c1ccccc1C(F)(F)F What is its recorded pIC50?
Reply | > 8.00

Ask | Quick one: pIC50 for C[C@@H](Oc1cc(-n2cnc3cnc(CNC4CCN(C)CC4)cc32)sc1C(N)=O)c1ccccc1C(F)(F)F ?
Reply | > 8.00

Ask | Find the recorded pIC50 belonging to CC(C)CN1CCN(Cc2cc3c(cn2)ncn3-c2cc(O[C@H](C)c3ccccc3C(F)(F)F)c(C(N)=O)s2)CC1 and report it.
Reply | > 8.00

Ask | Recorded pIC50 for C[C@@H](Oc1cc(-n2cnc3cnc(CN4CC(O)C4)cc32)sc1C(N)=O)c1ccccc1C(F)(F)F , please?
Reply | > 8.00

Ask | Any idea what its pIC50 is? The molecule is C[C@@H](Oc1cc(-n2cnc3cnc(CN4CCN(CC5CCN(C)CC5)CC4)cc32)sc1C(N)=O)c1ccccc1C(F)(F)F
Reply | 6.00 to 7.00
